system: Rattus norvegicus; test: Effective dose after subcutaneous administration to TPTX rats for 50% reduction of hypercalcemia; assay type: functional; details: sc
observedProperty: ED50

Consider the following illustrative entries.
# compoundStructure, ED50
measured = [
    ("CN1CCN(CCC(O)(P(=O)(O)O)P(=O)(O)O)CC1", "~0.4 mg/kg"),
    ("CN(C)CCC(N)(P(=O)(O)O)P(=O)(O)O", "> 0.2 mg/kg"),
    ("O=P(O)(O)C(O)(C1CNC1)P(=O)(O)O", "> 3 mg/kg"),
    ("O=P(O)(O)C(O)(CCCCCN1CCC(c2ccccc2)CC1)P(=O)(O)O", "> 0.3 mg/kg"),
]

For the next question, use this molecule.
What does the data say about its ED50? Entry: O=P(O)(O)C(O)(Cc1c[nH]c(-c2ccccc2)n1)P(=O)(O)O > 3 mg/kg
